# System: SW-620 colon
# ASSAY_PROCEDURE: NCI tumour cell line growth inhibition, 48 h
REPORTED_METRIC: TGI

compound=Fc1ccccc1CN1COc2c(cc(Cl)c3cccnc23)C1 value="18.4 µM"
compound="CN1NC(c2ccc(Cl)cc2)=C(C#N)C(=O)CC1c1ccccc1 (stereo not given)" value="> 100 µM"
compound=CNC(=O)CCN1CCN(CC/C=C2\c3ccccc3Sc3ccc(Cl)cc32)CC1 value="23.6 µM"
compound=COc1cc(C(=O)c2cnc(-c3c[nH]c4cccc(C)c34)[nH]2)cc(OC)c1OC value="> 100 µM"
compound=O=C(/C=C/c1ccc(OCc2ccccc2)cc1)NCc1ccc(C(=O)NCCc2ccccc2)cc1 value="> 100 µM"

I need TGI for every entry listed below, if you could help.
1. Cc1cc(C)c2nc3c(c(C(O)C4CCCCN4)c2c1)CC/C3=C\c1ccc(Cl)cc1 (stereo not given)
2. COC(=O)Cc1cc(=O)n2c3ccccc3n(C)c2c1C#N
3. CN(C(=O)Cc1ccccc1)n1cn[n+](CC(=O)OC(C)(C)C)c1
4. CCOc1ccc(NC(=O)CC2SC(=Nc3ccc(C)cc3)NC2=O)cc1 (stereo not given)
5. COC(=O)c1ccccc1CC1Cc2c(C)ccc(C)c2C1=O (stereo not given)

Output:
["> 100 µM", "> 100 µM", "> 10 µM", "> 100 µM", "> 100 µM"]
